- Assayed System: YES1 kinase (Homo sapiens)
- Sequence (P07947 whole entry): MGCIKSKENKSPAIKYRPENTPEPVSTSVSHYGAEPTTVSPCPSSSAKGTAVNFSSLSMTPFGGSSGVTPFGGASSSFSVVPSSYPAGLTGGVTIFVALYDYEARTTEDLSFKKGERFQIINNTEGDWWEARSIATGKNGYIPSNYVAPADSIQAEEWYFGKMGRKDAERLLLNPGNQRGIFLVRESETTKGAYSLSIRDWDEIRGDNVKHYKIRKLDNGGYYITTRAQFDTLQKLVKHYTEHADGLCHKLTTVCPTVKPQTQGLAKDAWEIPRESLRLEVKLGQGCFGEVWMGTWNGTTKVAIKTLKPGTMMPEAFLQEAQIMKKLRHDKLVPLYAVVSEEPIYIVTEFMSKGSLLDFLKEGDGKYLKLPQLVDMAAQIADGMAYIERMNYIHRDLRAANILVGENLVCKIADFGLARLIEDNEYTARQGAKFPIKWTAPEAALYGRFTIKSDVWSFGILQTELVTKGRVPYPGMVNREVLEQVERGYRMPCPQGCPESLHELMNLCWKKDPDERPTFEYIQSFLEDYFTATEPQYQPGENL
- Measurement Notes: YES1 kinase inhibition, ADP Glo assay (Promega)
- Type: biochemical
- Assay Setup: compound 100 nM; read-out: YES1 enzyme, % inhibition, 100 nM
Measured Parameter: inhibition at 0.1 µM (%)

{"Compound": "COc1cc(-c2cc(N3CC[C@@H](N(C)C)[C@@H](F)C3)n3ncnc(N)c23)ccc1NC(=O)OC(C)(C)C [Example 30]", "Assayed System": "YES1 kinase (Homo sapiens)", "Measured Parameter": "inhibition at 0.1 µM", "Numeric Value": 94}

[a] COc1cc(-c2c(F)c(N3CCC(N(C)C)CC3)n3ncnc(N)c23)ccc1NC(=O)OC(C)(C)C [Example 128]
[b] COc1cc(-c2cc(N3CCC4(CCC(=O)N4)CC3)n3ncnc(N)c23)ccc1NC(=O)OC(C)(C)C [Example 54]
[c] COc1cc(-c2cc(-c3ccc(N(C)C)cc3C)n3ncnc(N)c23)ccc1NC(=O)OC(C)(C)C [Example 2]
Data request: Order these by inhibition at 0.1 µM, descending, and give the full ranking. # the answer lists labels in the order requested
Data returned: a, b, c

###

- Assayed System: YES1 kinase (Homo sapiens)
- Measurement Notes: YES1 kinase inhibition, ADP Glo assay (Promega)
- Format: biochemical
- Assay Setup: compound 100 nM; read-out: YES1 enzyme, % inhibition, 100 nM
Measured Parameter: inhibition at 0.1 µM (%)

Would you please look over these solved cases?
{"Compound": "COc1cc(-c2cc(N3CCC4NCCC4C3)n3ncnc(N)c23)ccc1NC(=O)OC(C)(C)C (stereo not drawn) [Example 25]", "Numeric Value": 76}
{"Compound": "COc1cc(-c2cc(N3CCN(CCN(C)C)CC3)n3ncnc(N)c23)ccc1NC(=O)OC(C)(C)C [Example 28]", "Numeric Value": 85}
{"Compound": "COc1cc(-c2cc(-c3ccc4c(c3)OCC(=O)N4C)n3ncnc(N)c23)ccc1NC(=O)OC(C)(C)C [Example 8]", "Numeric Value": 64}
{"Compound": "COc1cc(-c2cc(N3CCC4(CCNC4=O)CC3)n3ncnc(N)c23)ccc1NC(=O)OC(C)(C)C [Example 53]", "Numeric Value": 60}
{"Compound": "COc1cc(-c2cc(-c3ccc4c(c3)oc(=O)n4C)n3ncnc(N)c23)ccc1NC(=O)OC(C)(C)C [Example 9]", "Numeric Value": 57}
{"Compound": "COc1cc(-c2cc(N3CCC4(CN(C)C4)C3)n3ncnc(N)c23)ccc1NC(=O)OC(C)(C)C [Example 37]", "Numeric Value": 69}
{"Compound": "COc1cc(-c2cc(N3CC4(CCN(C)CC4)C3)n3ncnc(N)c23)ccc1NC(=O)OC(C)(C)C [Example 38]", "Numeric Value": 80}
{"Compound": "COc1cc(-c2cc(N3CC[C@@H](N(C)C)[C@H](F)C3)n3ncnc(N)c23)ccc1NC(=O)OC(C)(C)C [Example 32]", "Numeric Value": 82}
{"Compound": "COc1cc(-c2cc(CCN3CCC(N)CC3)n3ncnc(N)c23)ccc1NC(=O)OC(C)(C)C [Example 100]", "Numeric Value": 88}
{"Compound": "COc1cc(-c2c(F)c(N3CCC(N)CC3)n3ncnc(N)c23)ccc1NC(=O)OC(C)(C)C [Example 127]", "Numeric Value": 88}

[I] COc1cc(-c2cc(N3CCC(CN(C)C)CC3)n3ncnc(N)c23)ccc1NC(=O)OC(C)(C)C [Example 19]
[II] COCCN1CCN(c2cc(-c3ccc(NC(=O)OC(C)(C)C)c(OC)c3)c3c(N)ncnn23)CC1 [Example 29]
Data request: Please tell me which of the two, I or II , has the higher reported inhibition at 0.1 µM value. Answer = label.
Data returned: I
